# literature pull: Epithelial discoidin domain-containing receptor 1 (Homo sapiens, UniProt Q08345) pIC50
For clarity, pIC50 is expressed as the negative log10 of concentration in mol/L.

Previously resolved entries follow.
• CC1CN(c2cncnc2)Cc2cc(C(=O)Nc3cccc(C(F)(F)F)c3)ccc21 (stereo not shown) = 6.72
• CC1CN(c2cncnc2)Cc2cc(C(=O)Nc3cc(CCN4CCN(C)CC4)cc(C(F)(F)F)c3)ccc21 (stereo not shown) = 7.44
• CCc1ccc(C(=O)N[C@H](CO)CCOC(F)(F)F)cc1NC(=O)c1cncc(-c2cccc(F)c2)c1 = 7.59

Please look at the following compound next.
query: Report pIC50 for Cc1cc(Oc2ccnc(N)n2)ccc1N1C(=O)CN(c2ccc(F)c(OC(F)(F)F)c2)C1=O please.
result: 9.00
